Molecular target: Thyrotropin receptor (Homo sapiens) (UniProt P16473)
Sequence (P16473 whole entry, looked up): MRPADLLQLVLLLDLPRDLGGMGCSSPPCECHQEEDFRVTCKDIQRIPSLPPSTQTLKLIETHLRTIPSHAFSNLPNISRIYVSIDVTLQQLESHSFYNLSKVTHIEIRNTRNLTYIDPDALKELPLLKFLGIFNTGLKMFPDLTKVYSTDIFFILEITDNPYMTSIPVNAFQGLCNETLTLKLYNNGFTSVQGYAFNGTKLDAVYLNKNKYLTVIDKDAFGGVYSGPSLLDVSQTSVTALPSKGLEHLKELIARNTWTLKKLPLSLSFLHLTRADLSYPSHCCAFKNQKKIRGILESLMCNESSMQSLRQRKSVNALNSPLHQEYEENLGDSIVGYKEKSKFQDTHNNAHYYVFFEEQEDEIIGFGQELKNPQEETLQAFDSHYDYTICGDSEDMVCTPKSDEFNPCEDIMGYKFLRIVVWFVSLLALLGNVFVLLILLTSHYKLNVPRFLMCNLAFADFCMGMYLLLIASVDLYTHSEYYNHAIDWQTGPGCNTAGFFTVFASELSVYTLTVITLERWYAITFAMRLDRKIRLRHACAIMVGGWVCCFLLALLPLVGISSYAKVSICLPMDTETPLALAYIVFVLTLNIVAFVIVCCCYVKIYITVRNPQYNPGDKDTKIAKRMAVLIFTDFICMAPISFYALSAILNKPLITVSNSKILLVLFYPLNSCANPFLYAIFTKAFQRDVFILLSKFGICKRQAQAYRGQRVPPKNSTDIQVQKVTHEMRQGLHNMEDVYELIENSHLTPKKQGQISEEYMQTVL
Assay: qHTS assay to identify small molecule antagonists of the thyroid stimulating hormone receptor (TSHR) signaling pathway (AID 1259385); note: nearly all actives have a fitted effect of over 20% in size
Settings: TSHR-HEK293 cAMP HTRF, TSH-stimulated antagonist mode; series mostly up to 92.4 µM
Inconclusive results are not listed. Active and inactive are the calls of the source. Calls come from the whole dose curve.
Classes used: 1 = active, -1 = inactive

[
  {
    "molecule": "Cc1cn([C@H]2C=C[C@@H](CO)O2)c(=O)[nH]c1=O",
    "targetOrSystem": "Thyrotropin receptor (Homo sapiens) (UniProt P16473)",
    "className": -1
  },
  {
    "molecule": "O=C1NC(=O)C(c2ccccc2)(c2ccccc2)N1",
    "targetOrSystem": "Thyrotropin receptor (Homo sapiens) (UniProt P16473)",
    "className": -1
  },
  {
    "molecule": "CC(C)NCC(O)c1ccc(O)c(O)c1 (stereo not drawn)",
    "targetOrSystem": "Thyrotropin receptor (Homo sapiens) (UniProt P16473)",
    "className": -1
  },
  {
    "molecule": "Nc1ccc(S(N)(=O)=O)cc1",
    "targetOrSystem": "Thyrotropin receptor (Homo sapiens) (UniProt P16473)",
    "className": -1
  },
  {
    "molecule": "NC(CO)(CO)CO",
    "targetOrSystem": "Thyrotropin receptor (Homo sapiens) (UniProt P16473)",
    "className": -1
  },
  {
    "molecule": "C1CCC(C(CC2CCCCN2)C2CCCCC2)CC1 (stereo not drawn)",
    "targetOrSystem": "Thyrotropin receptor (Homo sapiens) (UniProt P16473)",
    "className": 1
  },
  {
    "molecule": "OC[C@H]1O[C@H](O[C@]2(CCl)O[C@H](CCl)[C@@H](O)[C@@H]2O)[C@H](O)[C@@H](O)[C@H]1Cl",
    "targetOrSystem": "Thyrotropin receptor (Homo sapiens) (UniProt P16473)",
    "className": -1
  },
  {
    "molecule": "CN(C)CCOC(c1ccccc1)c1ccccc1",
    "targetOrSystem": "Thyrotropin receptor (Homo sapiens) (UniProt P16473)",
    "className": -1
  }
]
